# SYSTEM NAME: Left-right determination factor 2 (Homo sapiens)
# PROCEDURE SUMMARY: small molecules binding LEFTY2 protein – biochemical, small-molecule microarray, 635 nm fluorescence scan, primary screen (AID 1110)
# CONDITION PARAMETERS: higher = more signal
Each entry gets no if its composite z-score stays under 0.5, and yes if its composite z-score is 0.5 or above.

{"COMPOUND": "Cc1ccc(S[C@]2(C(=O)NCC(C)C)CC(=O)N(C3CCCCC3)[C@@H]2c2ccc(CO)cc2I)cc1", "DISCRETE LABEL": "no"}
{"COMPOUND": "COc1ccc(C#Cc2ccc3c(c2)[C@]2(C(=O)N3)[C@H](C(=O)O)[C@H]3C(=O)O[C@H](c4ccccc4)[C@H](c4ccccc4)N3[C@@H]2c2ccc(OCCO)cc2)cc1", "DISCRETE LABEL": "no"}
{"COMPOUND": "COC(=O)c1ccc(OC)c(/C=C\\CC(CCc2ccccc2)OC(=O)c2ccncc2)c1 (configuration not stated)", "DISCRETE LABEL": "yes"}
{"COMPOUND": "CO[C@H]1O[C@H](CO)[C@@H](OC(=O)c2ccc(Br)cc2)[C@@H]2OC(=O)[C@H](Cc3cccc(Br)c3)C/C=C/C[C@@H](Cc3cccc(Br)c3)C(=O)O[C@@H]12", "DISCRETE LABEL": "yes"}
{"COMPOUND": "O=C(Nc1cc(Br)ccc1C(=O)NCc1cccc(O)c1)c1ccccc1", "DISCRETE LABEL": "yes"}
{"COMPOUND": "COc1ccc([Si](C)(C)[C@@H]2[C@@H](CCO)O[C@]3(C(=O)N(Cc4cccc(N5C(=O)COc6ccccc65)c4)c4ccccc43)[C@H]2C)cc1", "DISCRETE LABEL": "no"}
{"COMPOUND": "COCCOC(=O)N1C(=O)[C@@]2(c3cc(C#Cc4ccc(OC)cc4)ccc31)[C@H](C(=O)N1CCc3cc(OC)c(OC)cc3C1)[C@H]1C(=O)O[C@H](c3ccccc3)[C@H](c3ccccc3)N1[C@@H]2c1ccc(OCCO)cc1", "DISCRETE LABEL": "yes"}
